# Test system: CCRIS mutagenicity, Ames/micronucleus/aberration tests
# assay method text: CCRIS mutagenicity studies
# test settings: Test System: AMES SALMONELLA TYPHIMURIUM; Strain/Indicator: TA98; Metabolic Activation: RAT, LIVER, S-9; Method: STANDARD PLATE
Activity calls are given as the source filed them. How the calls were made is not given here.
Field 'call' accepts active, inactive

Input line: Could you please tell me the result logged for C/C=C/C=C/CCCCCCCOC(C)=O in this assay?
Output line: inactive

Input line: Could you please tell me the result logged for CCc1cccc2c3c([nH]c12)C(C)(CC)OCC3 (stereo not drawn) in this assay?
Output line: inactive

Input line: Could you please tell me the result logged for C1O[C@@H]1[C@@H]1CO1 in this assay?
Output line: inactive

Input line: Could you please tell me the result logged for O[C@H]1C=Cc2c(cc3ccc4cccc5ccc2c3c45)[C@@H]1O in this assay?
Output line: active

Input line: Could you please tell me the result logged for O=NO in this assay?
Output line: inactive

Input line: Could you please tell me the result logged for CCOC(N)=O in this assay?
Output line: inactive

Input line: Could you please tell me the result logged for c1ccc2nc3c(cc2c1)-c1cccc2cccc-3c12 in this assay?
Output line: inactive

Input line: Could you please tell me the result logged for CCC(=O)Oc1ccc(/C(CC)=C(\CC)c2ccc(OC(=O)CC)cc2)cc1 in this assay?
Output line: inactive

Input line: Could you please tell me the result logged for CC[C@H]1OC(=O)[C@H](C)[C@@H](O[C@H]2C[C@@](C)(OC)[C@@H](O)[C@H](C)O2)[C@H](C)[C@@H](O[C@@H]2O[C@H](C)C[C@H](N(C)C)[C@H]2O)[C@](C)(O)C[C@@H](C)CN(C)[C@H](C)[C@@H](O)[C@]1(C)O in this assay?
Output line: inactive

Input line: Could you please tell me the result logged for Cn1c(N)nc2ncc(-c3ccccc3)cc21 in this assay?
Output line: active

Input line: Could you please tell me the result logged for CCOP(=O)(OCC)Oc1cc(C)nc(C(C)C)n1 in this assay?
Output line: inactive

Input line: Could you please tell me the result logged for CNC(=O)NOC(=O)N(C)C(=O)NC in this assay?
Output line: inactive

Input line: Could you please tell me the result logged for Cc1ccc(N=Nc2c(O)ccc3ccccc23)c(C)c1 in this assay?
Output line: inactive

Data origin, for the record: PubChem BioAssay AID1259407
